target: Cytochrome P450 3A4 (Homo sapiens, UniProt P08684); assay: Inhibition of CYP3A4 using BZR as substrate; type: ADME
Sequence (P08684 whole entry): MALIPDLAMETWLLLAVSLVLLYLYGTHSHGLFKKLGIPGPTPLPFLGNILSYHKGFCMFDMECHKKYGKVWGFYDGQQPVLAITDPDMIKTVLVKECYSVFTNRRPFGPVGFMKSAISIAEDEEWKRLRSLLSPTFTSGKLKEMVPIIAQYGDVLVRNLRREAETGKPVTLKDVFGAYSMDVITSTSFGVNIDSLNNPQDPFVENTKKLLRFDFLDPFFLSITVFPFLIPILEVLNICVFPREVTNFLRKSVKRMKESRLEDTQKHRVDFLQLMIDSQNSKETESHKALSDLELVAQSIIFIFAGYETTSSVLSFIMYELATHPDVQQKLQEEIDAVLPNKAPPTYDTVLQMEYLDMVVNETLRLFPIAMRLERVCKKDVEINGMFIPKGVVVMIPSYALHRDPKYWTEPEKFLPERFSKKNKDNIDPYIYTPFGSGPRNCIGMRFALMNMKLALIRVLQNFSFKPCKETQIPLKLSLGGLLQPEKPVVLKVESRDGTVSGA
measurement-type: IC50

Query: Quick check: IC50 on Cytochrome P450 3A4 (Homo sapiens, UniProt P08684), item `Cc1cc2cc(N=C(NC(=O)c3ccc(C(=O)N(C)C)nc3)N[C@H]3CCCCN(CC(=O)N4CCCC4)C3=O)ccc2o1` ?
Response: > 40 µM

* * *

assay: Tmax in monkey at 10 mg/kg, po; type: ADME, organism-based, Macaca mulatta; design: dose 10 mg/kg, route oral; details: rhesus monkey, in vivo
measurement-type: Tmax (h)
// return numeric value only (unit: h, not printed)

Query: Endpoint output: Tmax of `Cc1cc2cc(N=C(NC(=O)c3ccc(C(=O)N(C)C)nc3)N[C@H]3CCCCN(CC(=O)N4CCCC4)C3=O)ccc2o1` . Value?
Response: 1.8
